Attribute: IC50
# ASSAYED SYSTEM: p110α/p85α (PI3Kα) (Homo sapiens, UniProt P42336)
# Construct: purchased BPS Bioscience or Millipore 40620 (BPS Bioscience) or 14-602 (Millipore)
# Sequence (P42336 whole entry): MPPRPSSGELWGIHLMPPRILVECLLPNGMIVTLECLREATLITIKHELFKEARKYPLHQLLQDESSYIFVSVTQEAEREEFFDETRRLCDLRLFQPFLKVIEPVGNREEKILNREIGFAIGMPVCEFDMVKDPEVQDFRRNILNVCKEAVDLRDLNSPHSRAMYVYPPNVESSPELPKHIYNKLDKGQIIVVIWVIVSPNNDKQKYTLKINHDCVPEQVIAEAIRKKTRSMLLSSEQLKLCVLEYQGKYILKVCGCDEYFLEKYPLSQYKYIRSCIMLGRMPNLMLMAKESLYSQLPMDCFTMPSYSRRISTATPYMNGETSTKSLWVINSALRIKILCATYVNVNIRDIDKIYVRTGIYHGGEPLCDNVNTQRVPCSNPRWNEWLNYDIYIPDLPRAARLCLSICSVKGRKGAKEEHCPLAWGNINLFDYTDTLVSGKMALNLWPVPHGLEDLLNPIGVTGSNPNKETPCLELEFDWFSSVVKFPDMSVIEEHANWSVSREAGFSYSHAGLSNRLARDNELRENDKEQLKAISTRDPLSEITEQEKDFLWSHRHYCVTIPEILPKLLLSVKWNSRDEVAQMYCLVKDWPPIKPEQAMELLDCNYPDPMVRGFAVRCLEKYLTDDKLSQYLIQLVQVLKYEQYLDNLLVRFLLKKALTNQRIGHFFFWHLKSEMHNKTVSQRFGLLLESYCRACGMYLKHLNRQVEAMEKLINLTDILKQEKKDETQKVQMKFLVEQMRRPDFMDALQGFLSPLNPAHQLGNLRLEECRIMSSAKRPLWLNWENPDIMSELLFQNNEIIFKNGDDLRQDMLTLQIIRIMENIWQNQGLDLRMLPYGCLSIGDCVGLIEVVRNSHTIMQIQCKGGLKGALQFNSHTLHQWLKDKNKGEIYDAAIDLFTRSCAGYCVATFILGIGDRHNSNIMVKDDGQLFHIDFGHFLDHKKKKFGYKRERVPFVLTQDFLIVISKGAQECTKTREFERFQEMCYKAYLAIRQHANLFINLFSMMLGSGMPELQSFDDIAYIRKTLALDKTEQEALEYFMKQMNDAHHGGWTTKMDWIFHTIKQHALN
# Sequence (P27986 whole entry partner): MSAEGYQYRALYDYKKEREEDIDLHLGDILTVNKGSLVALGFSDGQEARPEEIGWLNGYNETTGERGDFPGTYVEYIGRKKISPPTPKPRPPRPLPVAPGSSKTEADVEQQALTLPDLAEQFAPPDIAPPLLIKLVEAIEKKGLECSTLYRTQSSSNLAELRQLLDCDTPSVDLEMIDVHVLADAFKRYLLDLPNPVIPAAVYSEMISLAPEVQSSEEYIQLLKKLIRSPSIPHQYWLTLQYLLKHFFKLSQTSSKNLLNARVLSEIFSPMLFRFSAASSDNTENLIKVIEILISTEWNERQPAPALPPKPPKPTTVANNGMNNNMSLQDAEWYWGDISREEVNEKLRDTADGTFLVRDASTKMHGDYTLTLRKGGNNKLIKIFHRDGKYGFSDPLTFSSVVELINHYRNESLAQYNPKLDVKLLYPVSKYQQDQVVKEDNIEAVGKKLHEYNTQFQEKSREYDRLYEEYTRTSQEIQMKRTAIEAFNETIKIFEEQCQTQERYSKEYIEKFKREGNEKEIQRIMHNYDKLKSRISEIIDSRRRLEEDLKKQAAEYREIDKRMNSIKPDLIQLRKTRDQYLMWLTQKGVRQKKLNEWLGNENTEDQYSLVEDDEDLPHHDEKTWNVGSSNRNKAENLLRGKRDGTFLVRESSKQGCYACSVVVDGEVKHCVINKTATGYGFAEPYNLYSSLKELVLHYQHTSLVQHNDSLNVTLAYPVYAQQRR
# PROTOCOL: HTRF assay, p110α/p85α
# Format: biochemical
# SETUP CONDITIONS: read-out: PI3Kα-HTRF-IC50 nM Inhibition Designation
# Procedure: HTRF Assay Protocol for Potency Assessment Against the Active Form of p110α/p85α: The mechanics of the assay platform are best described by the vendor (Millipore, Billerica, Mass.) on their website at the following URL: http://www.millipore.com/coa/tech1/74jt4z. Briefly, Stop solution (Stop A, #33-007 and Stop B, #33-009; 3:1 ratio) and Detection Mix (DMC, #33-015 with DMA, #33-011 and DMB, #33-013; 18:1:1 ratio) were prepared as recommended by the manufacturer ˜2 hrs prior to use. […]
PROPERTY LABEL: IC50

QUERY SMILES: C=CC(=O)Nc1cccc(-c2nc(N3CCOCC3)c3sccc3n2)c1
ASSAYED SYSTEM: p110α/p85α (PI3Kα) (Homo sapiens, UniProt P42336)
VAL: 1000 to 10000 nM

QUERY SMILES: C[C@H]1OC(=O)[C@H]1NC(=O)N1CCN(Cc2cc3nc(-c4cccc5[nH]ncc45)nc(N4CCOCC4)c3s2)CC1
ASSAYED SYSTEM: p110α/p85α (PI3Kα) (Homo sapiens, UniProt P42336)
VAL: 100 to 1000 nM

QUERY SMILES: CC1(C)Cc2nc(N3CCOc4ccc(-c5ccc6occc(=O)c6c5)cc43)sc2C(=O)N1
ASSAYED SYSTEM: p110α/p85α (PI3Kα) (Homo sapiens, UniProt P42336)
VAL: 100 to 1000 nM

QUERY SMILES: CC1(C)Cc2nc(N3CCOc4ccc(-c5ccc(C(=O)N6C[C@H]7C[C@@H]6C(=O)O7)cc5)cc43)sc2C(=O)N1
ASSAYED SYSTEM: p110α/p85α (PI3Kα) (Homo sapiens, UniProt P42336)
VAL: 1000 to 10000 nM

QUERY SMILES: O=C(N1CCN(Cc2cc3nc(-c4cccc5[nH]ncc45)nc(N4CCOCC4)c3s2)CC1)n1ccnc1
ASSAYED SYSTEM: p110α/p85α (PI3Kα) (Homo sapiens, UniProt P42336)
VAL: 10 to 100 nM

QUERY SMILES: CN(Cc1cc2nc(-c3cccc(O)c3)nc(N3CCOCC3)c2s1)C(=O)[C@@H]1CCC(=O)O1
ASSAYED SYSTEM: p110α/p85α (PI3Kα) (Homo sapiens, UniProt P42336)
VAL: 10 to 100 nM

QUERY SMILES: O=C1CC[C@H](C(=O)N2CC=C(c3cc4nc(-c5cccc(O)c5)nc(N5CCOCC5)c4s3)CC2)O1
ASSAYED SYSTEM: p110α/p85α (PI3Kα) (Homo sapiens, UniProt P42336)
VAL: 10 to 100 nM

QUERY SMILES: CC1(C)Cc2nc(N3CCOc4ccc(C(=O)N5C[C@H]6C[C@@H]5C(=O)O6)cc43)sc2C(=O)N1
ASSAYED SYSTEM: p110α/p85α (PI3Kα) (Homo sapiens, UniProt P42336)
VAL: 100 to 1000 nM
